# reported CB1 receptor binding percent inhibition; entries follow
- assay target: CB1 receptor (Homo sapiens)
- Construct: expressed in transfected cells
- Sequence (P21554 whole entry): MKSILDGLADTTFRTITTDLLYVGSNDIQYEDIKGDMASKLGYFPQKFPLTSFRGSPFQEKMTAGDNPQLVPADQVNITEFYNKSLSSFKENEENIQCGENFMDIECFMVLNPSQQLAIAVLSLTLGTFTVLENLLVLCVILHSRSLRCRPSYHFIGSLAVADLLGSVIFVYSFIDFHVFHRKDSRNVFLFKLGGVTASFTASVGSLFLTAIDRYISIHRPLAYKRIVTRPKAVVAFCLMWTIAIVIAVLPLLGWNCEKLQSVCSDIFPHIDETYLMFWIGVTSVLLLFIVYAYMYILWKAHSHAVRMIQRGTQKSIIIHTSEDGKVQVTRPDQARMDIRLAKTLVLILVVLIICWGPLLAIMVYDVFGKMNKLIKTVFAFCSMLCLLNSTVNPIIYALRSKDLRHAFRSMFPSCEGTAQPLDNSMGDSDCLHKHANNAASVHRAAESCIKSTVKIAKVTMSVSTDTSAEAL
- test description: Binding assay for CB1 agonists or inverse agonists (SK-N-MC membranes, [3H]-CP-55,940)
- condition parameters: test concentration not stated
observation type: CB1 receptor binding percent inhibition (%)

>  <molecule>
C[C@H](NS(=O)(=O)/C=C/c1n[nH]c2c1CCCCC2Cc1ccc(F)cc1)c1ccccc1 (stereo partly shown) [Cpd 108]

>  <unit text>
%

>  <numeric result>
44

$$$$
>  <molecule>
O=C(NC1CCC1)c1nn(-c2ccc(Cl)cc2Cl)c2c1CCCCC2Cc1ccc(Cl)cc1 (stereo not shown) [Cpd 25]

>  <unit text>
%

>  <numeric result>
51

$$$$
>  <molecule>
O=C(Nc1ccccn1)c1nn(-c2ccc(Cl)cc2Cl)c2c1CCCC/C2=C\c1ccc(Cl)cc1 [Cpd 152]

>  <unit text>
%

>  <numeric result>
47

$$$$
>  <molecule>
CCOC(=O)[C@@H]1C2CCC(C2)[C@@H]1NC(=O)c1nn(-c2ccc(F)cc2F)c2c1CCCCC2Cc1cccc(F)c1 (stereo partly shown) [Cpd 111]

>  <unit text>
%

>  <numeric result>
54

$$$$
>  <molecule>
CCOC(=O)[C@@H]1C2CCC(C2)[C@@H]1NC(=O)c1nn(-c2ccc(F)cc2F)c2c1CCCCC2Cc1ccc(F)cc1 (stereo partly shown) [Cpd 110]

>  <unit text>
%

>  <numeric result>
56

$$$$
>  <molecule>
C[C@H](NC(=O)c1n[nH]c2c1CCCC/C2=C\c1ccc(Cl)cc1)C1CCCCC1 [Cpd 143]

>  <unit text>
%

>  <numeric result>
77

$$$$
>  <molecule>
O=C(NCc1ccccc1)c1n[nH]c2c1CCCCC2Cc1ccc(F)cc1 (stereo not shown) [Cpd 129]

>  <unit text>
%

>  <numeric result>
94

$$$$
>  <molecule>
O=C(NCc1ccc(C(F)(F)F)cc1)c1nn(-c2ccc(Cl)cc2Cl)c2c1CCCCC2Cc1ccc(Cl)cc1 (stereo not shown) [Cpd 26]

>  <unit text>
%

>  <numeric result>
63

$$$$
>  <molecule>
O=C(N[C@@H]1c2ccccc2C[C@@H]1O)c1nn(-c2ccc(Cl)cc2Cl)c2c1CCCCC2Cc1cccc(Cl)c1 (single isomer, unassigned) [Cpd 113]

>  <unit text>
%

>  <numeric result>
53

$$$$
>  <molecule>
COC(=O)[C@@H](Cc1ccc(F)cc1)NC(=O)c1nn(-c2ccc(Cl)cc2Cl)c2c1CCCC[C@@H]2Cc1cccc(F)c1 [Cpd 77]

>  <unit text>
%

>  <numeric result>
51

$$$$
